Tested on: Karpas299 NHL
Test: In vitro cytotoxicity, cell proliferation assay (CellTiter-Glo, 96 h)
Assay type: cell-based
Settings: Homo sapiens, KARPAS-299, auristatin free drug
pIC50: −log10 of the molar value. Where a SMILES comes first, the peptide text is derived from it. [ ]: non-standard residue; d: D form. The star is where a group is joined. ξ: configuration not given here. Dolaproine = CO[C@@H]([C@@H]1CCCN1)[C@@H](C)C(=O)O; Dil = CC[C@H](C)[C@H](NC)[C@@H](CC(=O)O)OC; Tyrosinol = OC[C@H](Cc1ccc(O)cc1)N*; Val(3-OH) = CC(C)(O)[C@H](N)C(=O)O; Doe = c1ccc(C[C@H](N*)c2nccs2)cc1; X1 = C[C@@H](N*)[C@@H](O)c1ccccc1; NMeT = CN[C@H](C(=O)O)[C@@H](C)O; Phe(ol) = N[C@H](CO)Cc1ccccc1; NMeV = CN[C@H](C(=O)O)C(C)C; X6 = CN(C)[C@@H](CCO)C(=O)*; X8 = CN1C(=O)OC[C@H]1C(=O)*; NMeS = CN[C@@H](CO)C(=O)O; ξαMeS = CC(N)(CO)C(=O)O; Dap = NC[C@H](N)C(=O)O; Ms = CS(=O)(=O)*

molecule | measuredTarget | relationalOperator | pIC50
CC[C@H](C)[C@@H]([C@@H](CC(=O)N1CCC[C@H]1[C@H](OC)[C@@H](C)C(=O)N[C@H](C)[C@@H](O)c1ccccc1)OC)N(C)C(=O)[C@@H](NC(=O)C[C@@H](N)CO)C(C)C | Karpas299 NHL | = | 7.25
CC[C@H](C)[C@@H]([C@@H](CC(=O)N1CCC[C@H]1[C@H](OC)[C@@H](C)C(=O)N[C@H](CO)Cc1ccc(O)cc1)OC)N(C)C(=O)[C@@H](NC(=O)[C@@H](N)C(C)(C)O)C(C)C [Example 30] (H-[Val(3-OH)]V[Dil][Dolaproine]-Tyrosinol) | Karpas299 NHL | = | 6.32
CC[C@H](C)[C@@H]([C@@H](CC(=O)N1CCC[C@H]1[C@H](OC)[C@@H](C)C(=O)N[C@H](C)[C@@H](O)c1ccccc1)OC)N(C)C(=O)[C@@H](NC(=O)[C@H]([C@@H](C)O)N(C)C)C(C)C | Karpas299 NHL | = | 9.30
CC[C@H](C)[C@@H]([C@@H](CC(=O)N1CCC[C@H]1[C@H](OC)[C@@H](C)C(=O)N[C@H](CO)Cc1ccccc1)OC)N(C)C(=O)[C@@H](NC(=O)[C@@H](NC)[C@@H](C)O)C(C)C [Example 13] (H-[NMeT]V[Dil][Dolaproine][Phe(ol)]) | Karpas299 NHL | = | 8.66
CC[C@H](C)[C@@H]([C@@H](CC(=O)N1CCC[C@H]1[C@H](OC)[C@@H](C)C(=O)N[C@@H](Cc1ccccc1)c1nccs1)OC)N(C)C(=O)[C@@H](NC(=O)[C@@H](N)C(C)(C)O)C(C)C [Example 31] (H-[Val(3-OH)]V[Dil][Dolaproine]-Doe) | Karpas299 NHL | = | 8.77
CC[C@H](C)[C@@H]([C@@H](CC(=O)N1CCC[C@H]1[C@H](OC)[C@@H](C)C(=O)N[C@@H](Cc1ccccc1)C(=O)O)OC)N(C)C(=O)[C@@H](NC(=O)[C@@H]1COC(=O)N1C)C(C)C [Comparative Example C, reference compound] (X8-V[Dil][Dolaproine]F-OH) | Karpas299 NHL | = | 6.66
CC[C@H](C)[C@@H]([C@@H](CC(=O)N1CCC[C@H]1[C@H](OC)[C@@H](C)C(=O)N[C@H](CO)Cc1ccccc1)OC)N(C)C(=O)[C@@H](NC(=O)[C@H](CCO)N(C)C)C(C)C [Example 9] (X6-V[Dil][Dolaproine][Phe(ol)]) | Karpas299 NHL | = | 9.05
CC[C@H](C)[C@@H]([C@@H](CC(=O)N1CCC[C@H]1[C@H](OC)[C@@H](C)C(=O)N[C@H](C)[C@@H](O)c1ccccc1)OC)N(C)C(=O)[C@@H](NC(=O)[C@@H](N)C(C)(C)O)C(C)C [Example 28] (H-[Val(3-OH)]V[Dil][Dolaproine]-X1) | Karpas299 NHL | = | 8.03
CC[C@H](C)[C@@H]([C@@H](CC(=O)N1CCC[C@H]1[C@H](OC)[C@@H](C)C(=O)N[C@H](C)[C@@H](O)c1ccccc1)OC)N(C)C(=O)[C@@H](NC(=O)C(C)(N)CO)C(C)C (stereo partly drawn) [Example 33] (H-[ξαMeS]V[Dil][Dolaproine]-X1) | Karpas299 NHL | = | 8.77
CC[C@H](C)[C@@H]([C@@H](CC(=O)N1CCC[C@H]1[C@H](OC)[C@@H](C)C(=O)NCCc1ccccc1)OC)N(C)C(=O)[C@@H](NC(=O)[C@@H]1COC(=O)N1C)C(C)C | Karpas299 NHL | < | 6.00
CC[C@H](C)[C@@H]([C@@H](CC(=O)N1CCC[C@H]1[C@H](OC)[C@@H](C)C(=O)N[C@H](C)[C@@H](O)c1ccccc1)OC)N(C)C(=O)[C@@H](NC(=O)[C@H](CO)NC)C(C)C [Example 17] (H-[NMeS]V[Dil][Dolaproine]-X1) | Karpas299 NHL | = | 8.12
CC[C@H](C)[C@@H]([C@@H](CC(=O)N1CCC[C@H]1[C@H](OC)[C@@H](C)C(=O)N[C@@H](Cc1ccccc1)c1nccs1)OC)N(C)C(=O)[C@@H](NC(=O)[C@@H]1COC(=O)N1C)C(C)C | Karpas299 NHL | < | 6.00
CC[C@H](C)[C@@H]([C@@H](CC(=O)N1CCC[C@H]1[C@H](OC)[C@@H](C)C(=O)N[C@@H](Cc1ccccc1)C(=O)O)OC)N(C)C(=O)[C@@H](NC(=O)[C@@H](NC)C(C)C)C(C)C [MMAF, monomethyl auristatin F, reference compound] (H-[NMeV]V[Dil][Dolaproine]F-OH) | Karpas299 NHL | = | 7.39
CC[C@H](C)[C@@H]([C@@H](CC(=O)N1CCC[C@H]1[C@H](OC)[C@@H](C)C(=O)N[C@H](CO)Cc1ccccc1)OC)N(C)C(=O)[C@@H](NC(=O)[C@@H](N)CNS(C)(=O)=O)C(C)C [Example 50] (H-[Dap](Ms)V[Dil][Dolaproine][Phe(ol)]) | Karpas299 NHL | < | 6.00
CC[C@H](C)[C@@H]([C@@H](CC(=O)N1CCC[C@H]1[C@H](OC)[C@@H](C)C(=O)NC(CO)Cn1ccnn1)OC)N(C)C(=O)[C@@H](NC(=O)[C@H](CO)N(C)C)C(C)C (stereo partly drawn) | Karpas299 NHL | < | 6.00
